Quick reference: GI50 of the listed items.
- System: HCC827 (EGFR DelE746_A750)
- procedure details: Inhibition test for growth of cancer cell expressing EGFR (SRB), HCC827;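 note: cells in 96-well plates exposed to tenfold serial dilutions from 100 µM, fixed with trichloroacetic acid, SRB-stained, absorbance read at 540 nm, DMSO under 1%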
- Format: cell-based
- condition description: Homo sapiens, HCC827, 72 h, HCC827 cells, 72 hours, SRB; read-out: GI50 HCC827 EGFR DelE746_A750

# compound, assay system, GI50
rows = [
    ("C=CC(=O)Nc1cccc(Oc2nc(Nc3ccc(C(C)=O)cc3)nc3ccsc23)c1", "HCC827 (EGFR DelE746_A750)", "< 50 nM"),
    ("C=CC(=O)Nc1cccc(Oc2nc(Nc3ccc(N4CCOCC4)cc3)nc3ccsc23)c1", "HCC827 (EGFR DelE746_A750)", "50 to 100 nM"),
    ("C=CC(=O)Nc1cccc(Oc2nc(Nc3ccc(N4CCN(C(C)(C)C)CC4)cc3)nc3ccsc23)c1", "HCC827 (EGFR DelE746_A750)", "< 50 nM"),
    ("C=CC(=O)Nc1cccc(Oc2nc(Nc3ccc(OC4CCN(CC)CC4)cc3)nc3ccsc23)c1", "HCC827 (EGFR DelE746_A750)", "< 50 nM"),
    ("C=CC(=O)Nc1cccc(Oc2nc(Nc3ccc(N4CCN(CCO)CC4)cn3)nc3ccsc23)c1", "HCC827 (EGFR DelE746_A750)", "< 50 nM"),
    ("C=CC(=O)Nc1cccc(Nc2nc(Nc3ccc(C4CCN(C)CC4)cc3)nc3ccsc23)c1", "HCC827 (EGFR DelE746_A750)", "< 50 nM"),
    ("C=CC(=O)Nc1cccc(Oc2nc(Nc3ccc(C(=O)N4CCN(CC)CC4)c(Cl)c3)nc3ccsc23)c1", "HCC827 (EGFR DelE746_A750)", "< 50 nM"),
    ("C=CC(=O)Nc1cccc(Oc2nc(Nc3ccc(CN4CCCCC4)cc3)nc3ccsc23)c1", "HCC827 (EGFR DelE746_A750)", "< 50 nM"),
    ("C=CC(=O)Nc1cccc(Oc2nc(Nc3ccc(CN4CCN(CC)CC4)cc3)nc3ccsc23)c1", "HCC827 (EGFR DelE746_A750)", "< 50 nM"),
    ("C=CC(=O)Nc1cccc(Oc2nc(Nc3ccc(N4CCN(C5CCN(C)CC5)CC4)nc3)nc3ccsc23)c1", "HCC827 (EGFR DelE746_A750)", "< 50 nM"),
    ("C=CC(=O)Nc1cccc(Oc2nc(Nc3ccc(CN4CCOCC4)cc3)nc3ccsc23)c1", "HCC827 (EGFR DelE746_A750)", "50 to 100 nM"),
    ("C=CC(=O)Nc1cccc(Oc2nc(Nc3ccc(CN(C)C)cc3)nc3ccsc23)c1", "HCC827 (EGFR DelE746_A750)", "< 50 nM"),
    ("C=CC(=O)Nc1cccc(Oc2nc(Nc3ccc(CN4CCN(CC5CC5)CC4)cc3)nc3ccsc23)c1", "HCC827 (EGFR DelE746_A750)", "< 50 nM"),
    ("C=CC(=O)Nc1cccc(Oc2nc(Nc3ccc(C(C)N4CCN(CC)CC4)cc3)nc3ccsc23)c1 (stereo not shown)", "HCC827 (EGFR DelE746_A750)", "< 50 nM"),
    ("C=CC(=O)Nc1cccc(Oc2nc(Nc3ccc(N4CCN(CC(F)(F)F)CC4)cc3)nc3ccsc23)c1", "HCC827 (EGFR DelE746_A750)", "50 to 100 nM"),
    ("C=CC(=O)Nc1cccc(Oc2nc(Nc3ccc(N4CCN(C)CC4)cc3)nc3ccsc23)c1", "HCC827 (EGFR DelE746_A750)", "< 50 nM"),
]
